Tested on: Human papillomavirus type 1a protein E7 (residues 44-93)
test_name: small molecules binding HPV E7 44-93 – biochemical, small-molecule microarray, residues 44-93, 635 nm fluorescence, primary screen (AID 1108);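 also: E7 fragment applied at 1 µg/mL in TBST for 1 h at 4 C; score combines spot fluorescence with its signal to noise ratio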
stated_conditions: fluorescence 635 nm, higher = more signal
readout: composite z-score
# print the numeric value only

Here's what some known entries look like.
- compound: "C=CC[C@@]12N=C(c3ccc(OCCCO)cc3)O[C@@H]1c1ccccc1N(CCC)C2=O"
  composite z-score: 1.35
- compound: "CC(C)NC(=O)[C@@]1(c2ccc([N+](=O)[O-])cc2)CC(=O)N(CC23CC4CC(CC(C4)C2)C3)[C@@H]1c1ccc(CO)cc1"
  composite z-score: 0.939
- compound: "CC(=O)NCCCC[C@@H]1NC(=O)[C@H]2C[C@@H](C(=O)NCCCCCCNC(=O)CS)[C@@H](c3cccc(OCCO)c3)N2C1=O"
  composite z-score: 1.05

Could you now consider this next compound?
The value of composite z-score measured for the compound C=CCC(OC(C)=O)[C@@H]1[C@@H](N(Cc2cc3ccccc3o2)C(=O)c2cccc3ccccc23)c2cc(OCCCO)ccc2N1C(=O)c1ccc2ccccc2n1 (some centres not stated) turned out to be 0.193
